Target: Adenosine receptor A1 (Homo sapiens, UniProt P30542)
Sequence (P30542 whole entry): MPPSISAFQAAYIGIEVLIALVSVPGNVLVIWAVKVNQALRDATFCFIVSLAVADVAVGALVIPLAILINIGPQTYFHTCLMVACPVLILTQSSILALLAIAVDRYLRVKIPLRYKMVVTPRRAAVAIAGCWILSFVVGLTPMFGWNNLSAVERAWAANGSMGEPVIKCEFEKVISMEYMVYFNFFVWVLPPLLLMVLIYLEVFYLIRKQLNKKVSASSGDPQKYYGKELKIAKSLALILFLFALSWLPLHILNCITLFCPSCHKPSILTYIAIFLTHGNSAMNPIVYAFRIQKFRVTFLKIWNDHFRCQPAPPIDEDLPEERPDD
Assay: Displacement of [3H]CCPA from human recombinant adenosine A1 receptor expressed in CHO cells
Quantity Measured: Ki

Ki recorded for this compound, "Cn1c(=O)c2c(nc3n2CCCN3C2CCCCCC2)n(C)c1=O" , is > 10 µM

Ki recorded for this compound, "Cn1c(=O)c2c(nc3n2CCCCN3C2CCCCCCC2)n(C)c1=O" , is > 10 µM

Ki recorded for this compound, "CC(=O)O[C@H]1CC[C@H](N2CCCn3c2nc2c3c(=O)n(C)c(=O)n2C)CC1" , is > 10 µM

Ki recorded for this compound, "Cn1c(=O)c2c(nc3n2CCCN3CC2CC2)n(C)c1=O" , is 7.13 µM

====

System: Rattus norvegicus
Assay: Anticonvulsant activity in Sprague-Dawley albino rat assessed as protection against subcutaneous pentylenetetrazole-induced seizures at 50 mg/kg, po after 1 hr
Assay type: functional, organism-based
Parameters: dose 50 mg/kg
Active and inactive are the calls of the source. The rule behind the calls is not given here.
Quantity Measured: Activity

C[C@@H](C1CCCCC1)N1CCCn2c1nc1c2c(=O)n(C)c(=O)n1C ... inactive
Cn1c(=O)c2c(nc3n2CCCN3CC2CC2)n(C)c1=O ... inactive
Cn1c(=O)c2c(nc3n2CCCCN3CC2CCCCC2)n(C)c1=O ... inactive

====

Target: Adenosine receptor A2b (Homo sapiens, UniProt P29275)
Sequence (P29275 whole entry): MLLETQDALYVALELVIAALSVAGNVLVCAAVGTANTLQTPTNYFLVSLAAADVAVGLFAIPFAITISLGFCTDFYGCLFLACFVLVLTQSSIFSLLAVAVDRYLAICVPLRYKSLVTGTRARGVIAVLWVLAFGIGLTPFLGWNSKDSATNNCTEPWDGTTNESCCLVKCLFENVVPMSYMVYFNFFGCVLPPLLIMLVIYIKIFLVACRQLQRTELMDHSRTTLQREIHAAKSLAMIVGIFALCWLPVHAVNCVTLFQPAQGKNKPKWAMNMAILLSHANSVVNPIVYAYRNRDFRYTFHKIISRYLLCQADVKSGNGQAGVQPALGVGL
Experiment: Displacement of [3H]ZM241385 from human adenosine A2B receptor expressed in CHO cells
Assay type: cell-based
pKi: −log10 of the molar value.
Quantity Measured: pKi

Cn1c(=O)c2c(nc3n2CCCN3C2CCCCCCC2)n(C)c1=O ... < 5.00
Cn1c(=O)c2c(nc3n2CCCN3CC2CC2)n(C)c1=O ... 4.90

pKi for Adenosine receptor A2b (Homo sapiens, UniProt P29275) with input CC1CCC(N2CCCn3c2nc2c3c(=O)n(C)c(=O)n2C)CC1 (mixture of isomers) equals < 5.00

pKi for Adenosine receptor A2b (Homo sapiens, UniProt P29275) with input Cn1c(=O)c2c(nc3n2CCN3C2CCC(O)CC2)n(C)c1=O (mixture of isomers) equals < 5.00

pKi for Adenosine receptor A2b (Homo sapiens, UniProt P29275) with input CC(=O)OC1CCC(N2CCCCn3c2nc2c3c(=O)n(C)c(=O)n2C)CC1 (mixture of isomers) equals < 5.00

====

Organism: Rattus norvegicus
Test: Selectivity ratio of Ki for adenosine A1 receptor in rat brain cortical membrane to Ki for adenosine A2A receptor in rat brain striatal membrane
Format: cell membranes
# cutoff 6 applies to Ratio Ki; >= gives 1.0, < gives 0.0

### Prompt Is reported Ratio Ki greater than or equal to 6 here: "Cn1c(=O)c2c(nc3n2CCCN3C2CC2)n(C)c1=O"
### Response 1.0

### Prompt Is reported Ratio Ki greater than or equal to 6 here: CC1CCC(N2CCCCn3c2nc2c3c(=O)n(C)c(=O)n2C)CC1 (mixture of isomers)
### Response 0.0

### Prompt Is reported Ratio Ki greater than or equal to 6 here: Cn1c(=O)c2c(nc3n2CCCCN3C2CCC(O)CC2)n(C)c1=O (mixture of isomers)
### Response 1.0

### Prompt Is reported Ratio Ki greater than or equal to 6 here: CC1CCCCC1N1CCCn2c1nc1c2c(=O)n(C)c(=O)n1C (mixture of isomers)
### Response 1.0

### Prompt Is reported Ratio Ki greater than or equal to 6 here: "Cn1c(=O)c2c(nc3n2CCCN3C2CCCCCCC2)n(C)c1=O"
### Response 1.0

====

Target: Adenosine receptor A2a (Rattus norvegicus, UniProt P30543)
Sequence (P30543 whole entry): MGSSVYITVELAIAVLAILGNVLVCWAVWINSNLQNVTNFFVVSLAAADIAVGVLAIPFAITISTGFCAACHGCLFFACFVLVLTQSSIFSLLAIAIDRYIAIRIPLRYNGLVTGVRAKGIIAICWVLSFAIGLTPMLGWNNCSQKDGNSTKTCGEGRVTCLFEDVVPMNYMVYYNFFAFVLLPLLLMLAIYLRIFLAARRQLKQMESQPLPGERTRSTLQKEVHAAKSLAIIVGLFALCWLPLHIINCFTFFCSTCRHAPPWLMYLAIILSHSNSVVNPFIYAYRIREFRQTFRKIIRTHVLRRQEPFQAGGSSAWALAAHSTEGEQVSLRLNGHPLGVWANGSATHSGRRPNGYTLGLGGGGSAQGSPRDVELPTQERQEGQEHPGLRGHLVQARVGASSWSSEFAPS
Test: Displacement of [125I]ZM241385 from adenosine A2A receptor in rat brain striatum membrane
Type: cell membranes
Quantity Measured: Ki (µM)
Just the number please, in µM, no unit attached.

Ki recorded for this compound, CCCn1c(=O)c2[nH]c(C3C4CC5OC(=O)C3C5C4)nc2n(CCC)c1=O (stereo unspecified) , is 0.269

====

Target: Adenosine receptor A2a (Rattus norvegicus)
Test: Displacement of [3H]MSX-2 from adenosine A2A receptor in rat brain striatal membrane
Format: cell membranes
Quantity Measured: Ki (nM)
Just the number please, in nM, no unit attached.

C[C@H](C1CCCCC1)N1CCCn2c1nc1c2c(=O)n(C)c(=O)n1C ... 1300

Ki recorded for this compound, "CC(=O)O[C@H]1CC[C@H](N2CCCn3c2nc2c3c(=O)n(C)c(=O)n2C)CC1" , is 6200

Ki recorded for this compound, "Cn1c(=O)c2c(nc3n2CCN3CCC2=CCCCC2)n(C)c1=O" , is 2020

Ki recorded for this compound, "Cn1c(=O)c2c(nc3n2CCCN3C2CCCCCC2)n(C)c1=O" , is 2670

Ki recorded for this compound, CC(C1CCCCC1)N1CCCn2c1nc1c2c(=O)n(C)c(=O)n1C (racemic) , is 1240

Ki recorded for this compound, "Cn1c(=O)c2c(nc3n2CCCN3[C@H]2CC[C@H](O)CC2)n(C)c1=O" , is 3630

Ki recorded for this compound, "Cn1c(=O)c2c(nc3n2CCCCN3C2CCCCCCC2)n(C)c1=O" , is 6860

Ki recorded for this compound, CC1CCCCC1N1CCCn2c1nc1c2c(=O)n(C)c(=O)n1C (mixture of isomers) , is 1080

Ki recorded for this compound, "Cn1c(=O)c2c(nc3n2CCCCN3CCC2=CCCCC2)n(C)c1=O" , is 1170

Ki recorded for this compound, "Cn1c(=O)c2c(nc3n2CCCCN3CC2CCCCC2)n(C)c1=O" , is 3500

Ki recorded for this compound, Cn1c(=O)c2c(nc3n2CCCN3C2CCC(O)CC2)n(C)c1=O (mixture of isomers) , is 2040

Ki recorded for this compound, "Cn1c(=O)c2c(nc3n2CCCN3C2CCCCCCC2)n(C)c1=O" , is 570

Ki recorded for this compound, Cn1c(=O)c2c(nc3n2CCCCN3C2CCC(O)CC2)n(C)c1=O (mixture of isomers) , is 3810

Ki recorded for this compound, Cn1c(=O)c2c(nc3n2CCN3C2CCC(O)CC2)n(C)c1=O (mixture of isomers) , is 4480

Ki recorded for this compound, "Cn1c(=O)c2c(nc3n2CCCN3CC2CC2)n(C)c1=O" , is 980

Ki recorded for this compound, "Cn1c(=O)c2c(nc3n2CCCCN3C2CCCCC2)n(C)c1=O" , is 2960

Ki recorded for this compound, CC1CCCCC1N1CCCCn2c1nc1c2c(=O)n(C)c(=O)n1C (mixture of isomers) , is 3460

Ki recorded for this compound, "Cn1c(=O)c2c(nc3n2CCN3C2CCCCC2)n(C)c1=O" , is 2580

Ki recorded for this compound, "Cn1c(=O)c2c(nc3n2CCN3C2CCCCCCC2)n(C)c1=O" , is 330

Ki recorded for this compound, CC(=O)OC1CCC(N2CCCCn3c2nc2c3c(=O)n(C)c(=O)n2C)CC1 (mixture of isomers) , is 1740

====

Target: UniProt P0DMS8
Sequence (P0DMS8 whole entry): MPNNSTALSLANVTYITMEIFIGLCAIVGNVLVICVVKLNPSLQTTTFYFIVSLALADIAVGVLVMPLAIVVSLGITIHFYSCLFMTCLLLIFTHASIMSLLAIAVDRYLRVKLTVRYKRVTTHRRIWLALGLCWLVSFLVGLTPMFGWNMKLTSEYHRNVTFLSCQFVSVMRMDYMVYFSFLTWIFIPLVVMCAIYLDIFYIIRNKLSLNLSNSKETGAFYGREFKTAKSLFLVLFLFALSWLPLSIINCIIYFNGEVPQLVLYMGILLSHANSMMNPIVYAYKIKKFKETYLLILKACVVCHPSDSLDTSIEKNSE
Experiment: Displacement of [3H]PSB-11 from human recombinant adenosine A3 receptor expressed in CHO cells
Format: cell-based
Quantity Measured: Ki

Before answering, review these 5 worked examples.
Cn1c(=O)c2c(nc3n2CCN3C2CCCCC2)n(C)c1=O ... > 10 µM
Cn1c(=O)c2c(nc3n2CCCN3C2CCCCCC2)n(C)c1=O ... > 10 µM
Cn1c(=O)c2c(nc3n2CCCN3C2CCC2)n(C)c1=O ... > 10 µM
Cn1c(=O)c2c(nc3n2CCCN3C23CC4CC(CC(C4)C2)C3)n(C)c1=O ... 1.29 µM
Cn1c(=O)c2c(nc3n2CCN3C2CCCCCCC2)n(C)c1=O ... > 10 µM

Please turn your attention to the following entry.
Ki recorded for this compound, CC1CCC(N2CCCn3c2nc2c3c(=O)n(C)c(=O)n2C)CC1 (mixture of isomers) , is > 10 µM

====

Molecular target: Adenosine receptor A2a (Rattus norvegicus, UniProt P30543)
Assay: Displacement of [3H]MSX-2 from adenosine A2A receptor in rat brain striatal membrane
Type: cell membranes
Reported pKi values are given for each entry in this list.
Formally, pKi is defined as -log10 of the concentration c, with c in mol/L.

Before answering, review these 8 worked examples.
Cn1c(=O)c2c(nc3n2CCN3C2CCCC2)n(C)c1=O ... 5.51
Cn1c(=O)c2c(nc3n2CCCN3C2CCCC2)n(C)c1=O ... 6.00
CC1CCC(N2CCCCn3c2nc2c3c(=O)n(C)c(=O)n2C)CC1 (mixture of isomers) ... 6.08
Cn1c(=O)c2c(nc3n2CCN3CC2CCCCC2)n(C)c1=O ... 5.70
Cn1c(=O)c2c(nc3n2CCCN3CCC2=CCCCC2)n(C)c1=O ... 6.30
Cn1c(=O)c2c(nc3n2CCCN3CC2CCCCC2)n(C)c1=O ... 6.21
C[C@@H](C1CCCCC1)N1CCCn2c1nc1c2c(=O)n(C)c(=O)n1C ... 6.05
Cn1c(=O)c2c(nc3n2CCCCN3C2CCCC2)n(C)c1=O ... 5.86

pKi recorded for this compound, "Cn1c(=O)c2c(nc3n2CCCN3C2CC2)n(C)c1=O" , is 5.91

pKi recorded for this compound, "Cn1c(=O)c2c(nc3n2CCCN3C2CCCCC2)n(C)c1=O" , is 6.09

pKi recorded for this compound, "Cn1c(=O)c2c(nc3n2CCCN3C2CCC2)n(C)c1=O" , is 5.71
